# Test system: CP262
# testMethodNotes: qHTS profiling for inhibitors of Plasmodium falciparum proliferation (AID 504749); also: nearly all actives have a fitted effect of over 60% in size
# measurementSetup: P. falciparum in erythrocytes, SYBR Green DNA, 72 h; series mostly up to 28.7 µM
Results filed as inconclusive are left out. Activity calls are given as the source filed them. Calls follow the shape of the dose curve; as a rule, active = well fitted inhibition curve with a large enough effect; inconclusive = small, poorly fitted or top-dose-only effect; inactive = flat fitted curve, though single readings scatter.
parameterMeasured: outcome

CCC(C)C1O[C@]2(C=CC1C)CC1CC(C/C=C(\C)[C@H](OC3CC(OC)C(O[C@H]4CC(OC)[C@@H](O)C(C)O4)C(C)O3)[C@@H](C)/C=C/C=C3\COC4C(O)C(C)=C[C@H](C(=O)O1)[C@@]34O)O2 (some centres not stated)
inactive
CNc1ccc(C(=O)CC(O)CCC(C)C2OC(=O)CC(O)CC(=O)CC(O)CC(O)CC(O)CC(O)CC3(O)CC(O)C(C(=O)OC)C(CC(O[C@@H]4OC(C)C(O)C(N)C4O)/C=C/C=C/C=C/C=C/C=C/C=C/C=C/C2C)O3)cc1 (some centres not stated)
inactive
